tested on: MS2 coat protein; assay: apparent KD of MS2 coat protein; designed switch direction (-1 OFF switch, 1 ON switch): 1; higher = weaker reporter binding; conditions: input ligand: microRNA oligo, concentration not stated
Would you mind labelling by apparent KD of MS2 coat protein? At or over 90 nM is t, under is f.

Lookup: Dear colleague, could you confirm whether GGAAUAUGAUGUUACAUGAGGAUCACCCAUGUAGUGAUAACUAAGGAUAUUUGAAAGGAAGGAGAAGAGAAGGUAGGAUCAUAA [AK SSNG3-V2-12] (Eterna round: R96, puzzle: Same State NG 3) has apparent KD of MS2 coat protein at or above 90 nM?
Found: f

Lookup: What do you get for ACAUGAAAUGCAGGAUAUUUUGUACCUACAUGUGACAUGAGGAUCACCCAUGUGGUAAGUAUAAGAGAGAAGGGUAAGAUAUGU [Equivalence 3 - Jieux - Same State NG 2] (Eterna round: R96, puzzle: Same State NG 2) ?
Found: f

Lookup: What do you get for UGUUAGUAGACAGGAUAUUGAAUGUUAAGUAUUAACAUGAGGAUCACCCAUGUAUUAGAUUGGUACAAGAAGGGUCAAGUUUGU [JR_SSNG2_Sub012] (Eterna round: R96, puzzle: Same State NG 2) ?
Found: t

Lookup: What do you get for UUCCCAUCGGGAGGAUAUGGAACCUUAUUGGUUCUAGAAGGUCCAACAUGAGGAUCACCCAUGUGGGAGUGGUCUAAUGACCAC [SS NG10LRO02] (Eterna round: R96, puzzle: Same State NG 1) ?
Found: t

Lookup: What do you get for GGAGCCGGCACUGAGGAUAUUCAUAUUAAAACAUGAGGAUCACCCAUGUAGGCCAGAAGGCCUUGGGAGAAGGCGGGUCGGCCCG [Bibimoar - 3] (Eterna round: R96, puzzle: Same State 2) ?
Found: t

Lookup: What do you get for GUGGUCAGACAUGAGGAUCACCCAUGUGGAAUAAAUAAGGAGAAGGAUAUGCAAUAUAGGAUAUAGCAGAAGGUUUGGUUGGUG (Eterna round: R96, puzzle: Same State NG 3) ?
Found: f

Lookup: What do you get for UUGUUUUGAAAUUAACAUGAGGAUCACCCAUGUCUUGACACAGAGGAUAUACAUGUUUGUUUGUAGUAGAAGGCUGUUUAUUGU [JR_SSNG3_Sub097] (Eterna round: R96, puzzle: Same State NG 3) ?
Found: t

Lookup: What do you get for UCAGUCAUGUAAGGAUAUGCAGCCGAAACGGCUGCAGAAGGUACUAUAAUUACAUGAGGAUCACCCAUGUUAUAAAAUUUAUAU [Mat - Same State NG 1 - JL mod - D64] (Eterna round: R96, puzzle: Same State NG 1) ?
Found: f

Lookup: What do you get for AGAUGUUAAUUAGGAUAUGGUCACAUGAGGAUCACCCAUGUAACGAUGAUACGAUGUGGUCAAGACUAGAAGGGAUCGCUAACA [SameState NG2 #72] (Eterna round: R96, puzzle: Same State NG 2) ?
Found: f
